Reported log10(GI50) values, PC-3 cells (human prostate cancer cells).
propertyMeasured: log10(GI50) (log10 of the value in µM)

INSERT INTO measurements (structureassmiles, valuemeasured) VALUES
  ('CCc1nc2c(N3CCOCC3)nc(SCc3ccc(OC)c(F)c3)nc2n1CC', -0.62),
  ('COc1ccc(CSc2nc(N(C)C)c3ncn(C)c3n2)cc1C#N', -1.40),
  ('CCOc1ccc(CSc2nc(N3C=COCC3)c3ncn(CC)c3n2)cc1[N+](=O)[O-]', 0.18),
  ('COc1ccc(CSc2nc(N3C=COCC3)c3ncn(C)c3n2)cc1[N+](=O)[O-]', -0.28),
  ('CCn1c(C)nc2c(N3CCOCC3)nc(SCc3ccc(OC)cc3)nc21', -0.08),
  ('CCc1nc2c(N3CCOCC3)nc(SCc3ccc(OC)c(NC(=O)c4ccco4)c3)nc2n1C', -0.11),
  ('C/C=C/c1nc(SCc2ccc(OC)cc2)nc2c1ncn2C', -0.06);
